Test system: SK-MEL-5 melanoma
Procedure details: NCI-60 one-dose screen, 48 h
Condition set: 10 µM unless noted
The panel holds about 83,000 compounds, 20% with a hit somewhere; the sample as a whole holds those more often. The source made the active and inactive calls. Rule for the calls: active = growth percent below 10; inactive = the rest.
Answer with one of the outcomes given here: active, inactive

Here are 4 compounds together with their reported answers.
Compound	Class name
COc1ccc(-c2csc(NC(=O)CSc3nc(C)cc(=O)[nH]3)n2)cc1	inactive
CCOC(=O)C1=C(C)N(C)C(=O)N(C)C1c1ccccc1 (stereo not given)	inactive
Cc1c(N2CCCCC2)[nH]c2ccccc12	inactive
CC(C)=CCC[C@](C)(O)C1CC[C@]2(C)[C@@H]1CC[C@@H]1[C@@]3(C)CC/C(=N\OCCC#N)C(C)(C)[C@@H]3CC[C@]12C (stereo not given in full)	inactive

Now consider the entry below.
Hello, I am checking results. What call was entered for CCN1C(=O)N(CC)C2C1NN=c1s/c(=C\c3ccccc3)c(=O)n12 (stereo not given) ?
active

----------
// reported growth for each item listed
Test system: MCF7 breast
Procedure details: NCI-60 one-dose screen, 48 h (100 = growth as untreated, 0 = no growth, -100 = all killed)
Condition set: 10 µM unless noted
About 83,000 compounds went through this panel and 20% of them were active in at least one assay; those are over-represented in the sample as a whole. Calls of active or inactive are those of the source. The calls were made as follows: active = growth percent below 10; inactive = the rest.

Study these solved cases before continuing.
Compound	growth
CC1(C)CC(=O)C2=C(C1)OC(C(=O)c1ccccc1)C2c1cccc(Oc2ccccc2)c1 (configuration not stated)	28.5% (inactive)
O=C(CSc1nc(-c2ccccc2)cn1-c1ccc(Cl)cc1)c1ccc([N+](=O)[O-])cc1	76.1% (inactive)
C=C(c1ccc(C(=O)O)c(F)c1)c1cc2c(cc1C)C(C)(C)C=CC2(C)C	52.5% (inactive)
C#CCOc1cccc(-c2ncnc3cc(NC(=O)CCl)ccc23)c1	3.63% (active)

For record O=C(NS(=O)(=O)c1ccccc1)n1cc(-c2ccncc2)c(-c2cc(O)cc(Cl)c2)n1 the listed growth is 102% (inactive)

compound Cc1cccc(CN(Nc2ccccc2)c2ccccc2)n1 , growth observed: 93.3% (inactive)

Reported growth of O=C(/C=C/c1ccco1)c1ccc(Nc2ccnc3cc(Cl)ccc23)cc1 : 56.1% (inactive)

Looking up OC1CSSC1Cn1cnc2c(Nc3ccc(F)c(Cl)c3)ncnc21 (configuration not stated) , I see its growth listed as 45.7% (inactive)

// C#C[C@]1(O)CC[C@H]2[C@@H]3CC=C4c5sc(-c6cccc(C)c6)nc5CC[C@]4(C)[C@H]3CC[C@@]21C : growth value = 34.9% (inactive)

In plain terms, COc1ccc(/C=N\NC(=O)c2ccc3nc(-c4ccc(Cl)cc4)[nH]c3c2)cc1 has a documented growth of 16.7% (inactive)

Documented growth of CCCN1C2CCC1/C(=C\c1ccc(OC)cc1)C(=O)/C2=C/c1ccc(OC)cc1 : 75.8% (inactive)

So for CC(=O)O[C@H]1C[C@@]2(C)[C@@H](C[C@@H](O)[C@H]3[C@@]4(C)CC[C@H](N5CCCC5)[C@@H](C)[C@@H]4CC[C@@]32C)/C1=C(\CCC=C(C)C)C(=O)O , the logged growth turned out to be 90.7% (inactive)

# compound CNC(=O)c1cc(Oc2ccc3nc(NC(=O)NC(C)C)sc3c2)ccn1 ; its growth = 53.9% (inactive)

Item: O=C(c1ccc(F)cc1)C1CCN(CCn2c(=O)[nH]c3ccccc3c2=O)CC1 | growth: 97.6% (inactive)

Documented growth of O=C1c2ccccc2C(=O)c2cc(Cn3c[n+](Cc4ccc5ccccc5c4)c4ccccc43)ccc21 : 39.9% (inactive)

The compound listed as O=C1/C(=C/c2ccc(Br)cc2)COc2ccc(O)cc21 has a reported growth of 9.07% (active)

The compound listed as CNC(=O)c1cc(Oc2ccc3nc(NC(=O)c4cc(C(F)(F)F)cc(C(F)(F)F)c4)sc3c2)ccn1 has a reported growth of 9.82% (active)

----------
Test system: K-562 leukemia
Procedure details: NCI-60 one-dose screen, 48 h (100 = growth as untreated, 0 = no growth, -100 = all killed)
Condition set: 10 µM unless noted
Compounds without any hit were thinned out: in the full panel of roughly 83,000, 20% have a hit.
Known growth of a selection of molecules
A number alone suffices; assume %.

Molecule	Subject of test	growth, %
CCCS(=O)(=O)Nc1cccc(Nc2ncnc3cc(NC(=O)CCl)ccc23)c1Cl	K-562 leukemia	0
COc1ccc(S(=O)(=O)N(C)c2oc(-c3ccc(Cl)cc3)nc2C#N)cc1	K-562 leukemia	20.3
COC(=O)c1cc(-c2ccc(OC)c(OC)c2)[nH]c1N/N=C/c1c(Cl)cccc1Cl	K-562 leukemia	19.9
O=C(CN1C(=O)NC2NC(=O)NC21)N/N=C/c1cccc([N+](=O)[O-])c1 (stereo unspecified)	K-562 leukemia	103
COc1cccc(-c2nn(-c3ccccc3)cc2-c2ccnc(-c3cccnc3)c2)c1	K-562 leukemia	81.2

The molecule CC(=O)c1ccc(Nc2nccc(-c3ccc(Cl)cc3)n2)cc1 showed growth equal to 83.9

In plain terms, Cc1c(CC(=O)Nc2ccccc2)nnn1-c1ccccc1 has a documented growth of 101

The value of growth measured for the molecule N#CSCc1cc(Cl)c(CSC#N)cc1Cl turned out to be 29.2

molecule C=CCOC(=O)C1=C(C)N(CC)C(=O)N(CC)C1c1c(Cl)n(C)c2ccccc12 (stereo unspecified) , growth observed: 93

Lookup result for CN(C)c1ccc(Cc2cc(-c3ccccc3)nn(C/C(=N/O)c3ccccc3)c2=O)cc1 ; measured growth: 29.5

Lab note: measured growth of Cc1[nH]c(C(=O)Nc2ccccc2OC2CCNC2)c(Cl)c1Cl (stereo unspecified) was 52.2

For NCCCCCNc1noc(Cc2c[nH]c3cc(Br)ccc23)n1 the molecule record lists growth as 14.3

Quick note, growth for COc1ccc(C(=O)C2OC3=C(C(=O)CC(C)(C)C3)C2c2cccc(Oc3ccccc3)c2)cc1 (stereo unspecified) landed at 87.2

Reported growth of COc1cc(CNC(=O)CCCC/C=C/C(C)C)ccc1OCc1cn(-c2ccc(C(F)(F)F)cc2)nn1 : 76.3

Consider CNC(=O)c1cc(Oc2cccc3nc(NC(=O)Nc4ccc(F)cc4F)ccc23)ccn1 . Its measured growth is 42

GET /value?item= CC/C(=C(/c1ccc(Cl)cc1)c1ccc(OCCN(CC)CC)cc1)c1ccc(OC)cc1 &field=growth returns -18

----------
Test system: ACHN renal
Procedure details: NCI-60 one-dose screen, 48 h (100 = growth as untreated, 0 = no growth, -100 = all killed)
Condition set: 10 µM unless noted
The panel holds about 83,000 compounds, 20% with a hit somewhere; the sample as a whole holds those more often.
Quick reference: growth of the listed items.
Give the value in % but do not write % after it.

// known answers, use as guide
Molecule	growth, %
COc1ccc(-c2cc(-c3ccc(N(C)C)cc3)nc(NC(=O)c3cccnc3)n2)cc1	95.6
Cn1ccnc1C(=O)/C=C/c1ccc(C(=O)Nc2c(F)c(F)c(F)c(F)c2F)cc1	-43
C#CCOc1ccc(C2=NN(C)C3N=C(Cl)c4ncn(C)c4N23)cc1OCC#C (centres undefined)	89.6

Tested on ACHN renal: CC(C)(C)n1cc(-c2ccnc(NCCNS(=O)(=O)c3ccc(Br)cc3)c2)c(-c2cccc(O)c2)n1 . Observed growth: 25

Record C/C=C(/C)C(=O)O[C@@H]1CC(C)(C)CC2C34OC(=O)[C@@]21CC[C@@]3(C)[C@]1(C)CCC2C(C)(C)C(=O)CC[C@]2(C)C1C[C@@H]4O (some centres undefined) / ACHN renal, growth recorded as 85.9

For CN(C)CCOc1ccc(/C(=C(/CCCCCCCCCC[P+](c2ccccc2)(c2ccccc2)c2ccccc2)c2ccccc2)c2ccccc2)cc1 on ACHN renal, measured growth was -95.8

Summary line: CN(C)c1ccc(/C=C/C2=[N+](C)c3ccccc3C2(C)C)cc1 , ACHN renal, reported growth = 14

The molecule O=c1ccc2c(ccc3ncccc32)o1 , when measured on ACHN renal, yielded growth of 95.6

Note to self: growth of CCN1C(=O)N(CC)C2C1NN=c1s/c(=C\c3ccccc3)c(=O)n12 (centres undefined) with ACHN renal was 30.2

Entry CCOC(=O)c1c(NC(=S)Nc2ccc([N+](=O)[O-])cc2)sc2c1CCCCC2 under ACHN renal had growth of 84.6

The molecule CSc1nc(N)c2c(n1)NC(c1ccccc1)C1CCc3ccccc3C1=N2 (centres undefined) , tested on ACHN renal, showed growth of 72.3

----------
System: KM12 colon
Procedure details: NCI-60 one-dose screen, 48 h
Condition set: 10 µM unless noted
Compounds without any hit were thinned out: in the full panel of roughly 83,000, 20% have a hit. Activity calls are given as the source filed them. How the source made its calls: active means growth percent below 10; inactive means the rest.
Can you answer with just one of these options? active, inactive

Some entries whose results are on file:
>>> df
                                   compound  class_name
0          COc1ccc(NC(=O)c2ccc(Cl)cc2Cl)cc1    inactive
1  C=C(C)[C@@H]1CCC[C@]2(C(=O)OC)CC[C@]3(C)[C@@H](CC[C@@H]4[C@@]5(C)CCCNC(C)(C)[C@@H]5CC[C@]43C)[C@@H]12    inactive
2                    O=C(O)CCCN1C(=O)CSC1=S    inactive
3  C#CC(F)(F)[C@]1(O)CCC2C3CCC4=CC(=O)CCC4=C3[C@@H](c3ccc(N(C)C)cc3)C[C@@]21C (stereo not given in full)    inactive
4  CC1OC(C(=O)N2CCN(CCO)CC2)CC1COC1CCCCC1 (stereo not given)    inactive
5  c1ccc(Cn2cc3c(c2)-c2nc(Nc4ccccc4)ncc2CC3)cc1    inactive
6  COC(=O)CNC(=O)c1ccc(NC(=O)c2[nH]c(C)c(Cl)c2Cl)c(O[C@H]2CCNC2)c1    inactive
7  COc1cc(C(=O)n2nc(NCCCc3ccccc3)c3cc(N)ccc32)cc(OC)c1OC    inactive
8  Cc1oc2ccc(O)c(CN3CCCCCC3)c2c1C(=O)Nc1ccc(C(F)(F)F)cc1    inactive
9  Cn1ccnc1C(=O)/C=C/c1ccc(CC(=O)Nc2cc(F)c(F)c(F)c2)cc1      active

Which result was noted for this compound in the test: Cn1cc(-c2nc(-c3c[nH]c4c(Cl)nccc34)cs2)c2ccccc21
inactive

How was COc1ccc(S(=O)(=O)Oc2ccc(-c3sc4cc(OS(=O)(=O)c5ccc(OC)cc5)ccc4c3C(=O)c3ccc(OCCN4CCCCC4)cc3)cc2)cc1 classified in this test?
inactive

Could you please tell me the result logged for O=S(=O)(Nc1ccc(Br)cc1)c1ccc(-c2cnc(C3CC3)o2)cc1 in this assay?
inactive

Outcome? C#C[C@]1(O)CC[C@H]2[C@@H]3CC=C4c5sc(-c6cccc(C)c6)nc5CC[C@]4(C)[C@H]3CC[C@@]21C
inactive

Please state the recorded outcome for this compound: c1ccc2[nH]c(-c3ccc(-c4nccc5c4[nH]c4ccccc45)cc3)nc2c1
inactive

Short answer needed: outcome of this test for CN1CCN(CCCNC(=O)c2c3c(n4ccccc24)C(=O)c2ncccc2C3=O)CC1 ?
inactive

Which outcome was entered for the compound CNC(=O)c1cc(Oc2ccc3nc(NC(=O)NC(C)C)sc3c2)ccn1 in this test?
inactive
